In this section we review reported pIC50 values for a set of compounds.
Tested on: PC-3
assay_protocol: SRB antiproliferation assay, PC-3 prostate cancer
condition_summary: read-out: IC50 PC-3; SRB
pIC50: −log10 of the molar value.

{"compound": "CCc1cc(C(=O)c2csc(-c3ccccc3)n2)cc(OC(F)(F)F)c1OC(=O)CCl [18-18]", "pIC50": "~5.00"}
{"compound": "COc1cc(C(=O)c2csc(-c3ccccc3F)n2)cc(OC)c1OC [8l]", "pIC50": 7.09}
{"compound": "COc1cc(C(=O)c2cscn2)cc(OC)c1OC [compound 10]", "pIC50": "< 4.70"}

The reported numbers originate from patent US10865196B2.
